# protocol.description: Cytotoxicity evaluation (CCK8), CT26
# conditions.used: mouse, CT26 intestinal cancer cells
measurement.label: IC50 at 72 h

Check out these entries, answers already filled in.
{"columns": ["compound", "IC50 at 72 h"],
 "data": [
  ["C[C@H](NC(=O)c1c(CCc2ccc(F)cc2)sc2c1CCOC2)c1ccc(C(=O)O)cc1 [YJ106]", "> 100 µM"],
  ["C[C@H](NC(=O)c1c(C#Cc2ccc(F)cc2)sc2c1CCCCC2)c1ccc(C(=O)O)cc1 [YJ104]", "> 100 µM"],
  ["C[C@H](NC(=O)c1c(CCc2ccc(F)cc2)sc2c1CC(C)(C)OC2)c1ccc(C(=O)O)cc1 [YJ110]", "> 100 µM"],
  ["C[C@H](NC(=O)c1c(NCc2ccc(C(F)(F)F)cc2)sc2c1CCOC2)c1ccc(C(=O)O)cc1 [YJ121]", "10 to 100 µM"],
  ["C[C@H](NC(=O)c1c(CCc2ccc(F)cc2)sc2c1CCC2)c1ccc(C(=O)O)cc1 [YJ109]", "> 100 µM"]
]}

Recorded IC50 at 72 h of Nc1ccn([C@@H]2O[C@H](CO)[C@@H](O)C2(F)F)c(=O)n1 [gemcitabine, reference compound] , please.
0.016 µM
